tested-on: Proteinase-activated receptor 2 (Homo sapiens, UniProt P55085)
measurement-notes: Displacement of europium-labeled 2f-LIGRLO-NH2 from human PAR2 expressed in CHO cells after 1 to 2 hrs
Type: cell-based
pIC50: −log10 of the molar value.
assay-endpoint: pIC50

- CC[C@H](C)[C@H](NC(=O)[C@H](CC1CCCCC1)NC(=O)c1ccno1)C(=O)NCc1ccccc1OC: 5.35

----------
tested-on: Proteinase-activated receptor 2 (Homo sapiens) (UniProt P55085)
measurement-notes: Antagonist activity at PAR2 in human HT-29 cells assessed as inhibition of 2f-LIGRLO-NH2-induced ca2+ release at 1 uM preincubated for 15 mins measured after 1 hr by FLIPR assay
Assay type: cell-based
assay-endpoint: inhibition (%)

- CC[C@H](C)[C@H](NC(=O)[C@H](CC1CCCCC1)NC(=O)c1ccno1)C(=O)NCc1ccccc1C: 74
- CC[C@H](C)[C@H](NC(=O)[C@H](CC1CCCCC1)NC(=O)c1ccno1)C(=O)NCc1ccccc1Cl: 85
- CC[C@H](C)[C@H](NC(=O)[C@H](CC1CCCCC1)NC(=O)c1ccno1)C(=O)N(CC(C)C)CC(C)C: 0
- CCCCOc1ccccc1CNC(=O)[C@@H](NC(=O)[C@H](CC1CCCCC1)NC(=O)c1ccno1)[C@@H](C)CC: 8
- CC[C@H](C)[C@H](NC(=O)[C@H](CC1CCCCC1)NC(=O)c1ccno1)C(=O)NCCc1ccc(OC)c(OC)c1: 32
- CC[C@H](C)[C@H](NC(=O)[C@H](CC1CCCCC1)NC(=O)c1ccno1)C(=O)NCc1ccccc1OC(C)C: 67
- CC[C@H](C)[C@H](NC(=O)[C@H](CC1CCCCC1)NC(=O)c1ccno1)C(=O)NCc1ccccc1: 76
- CC[C@H](C)[C@H](NC(=O)[C@H](CC1CCCCC1)NC(=O)c1ccno1)C(=O)NCc1ccccc1C(F)(F)F: 57

----------
tested-on: Proteinase-activated receptor 2 (Homo sapiens)
measurement-notes: Antagonist activity at PAR2 in human HT-29 cells assessed as inhibition of 2f-LIGRLO-NH2-induced ca2+ release at 1 uM preincubated for 15 mins measured after 1 hr by FLIPR assay
Assay type: cell-based
assay-endpoint: inhibition (%)

* CC[C@H](C)[C@H](NC(=O)[C@H](CC1CCCCC1)NC(=O)c1ccno1)C(=O)NCc1cccc(-c2ccccc2)c1 | 17
* CC[C@H](C)[C@H](NC(=O)[C@H](CC1CCCCC1)NC(=O)c1ccno1)C(=O)N(C)Cc1ccccc1 | 7
* CC[C@H](C)[C@H](NC(=O)[C@H](CC1CCCCC1)NC(=O)c1ccno1)C(=O)NCc1ccccc1OC | 100
* CC[C@H](C)[C@H](NC(=O)[C@H](CC1CCCCC1)NC(=O)c1ccno1)C(=O)NCc1ccc(OC)cc1 | 95
* CC[C@H](C)[C@H](NC(=O)[C@H](CC1CCCCC1)NC(=O)c1ccno1)C(=O)NC1C2CC3CC(C2)CC1C3 (stereo partly drawn) | 29
* CCCOc1ccccc1CNC(=O)[C@@H](NC(=O)[C@H](CC1CCCCC1)NC(=O)c1ccno1)[C@@H](C)CC | 34
* CC[C@H](C)[C@H](NC(=O)[C@H](CC1CCCCC1)NC(=O)c1ccno1)C(=O)NCc1ccccc1F | 93
* CCOc1ccccc1CNC(=O)[C@@H](NC(=O)[C@H](CC1CCCCC1)NC(=O)c1ccno1)[C@@H](C)CC | 71

----------
Form field: Activity (one value per entry).
tested-on: Proteinase-activated receptor 2 (Homo sapiens) (UniProt P55085)
measurement-notes: Agonist activity at PAR2 in human HT-29 cells assessed as induction of ca2+ release at 10 uM after 1 hr by FLIPR assay relative to 2f-LIGRLO-NH2
Assay type: cell-based
assay-endpoint: Activity (%)

* CCOc1ccccc1CNC(=O)[C@@H](NC(=O)[C@H](CC1CCCCC1)NC(=O)c1ccno1)[C@@H](C)CC | 29
* CC[C@H](C)[C@H](NC(=O)[C@H](CC1CCCCC1)NC(=O)c1ccno1)C(=O)NCc1nc2ccccc2[nH]1 | 86
* CC[C@H](C)[C@H](NC(=O)[C@H](CC1CCCCC1)NC(=O)c1ccno1)C(=O)NCc1cccc2ccccc12 | 2
* CC[C@H](C)[C@H](NC(=O)[C@H](CC1CCCCC1)NC(=O)c1ccno1)C(=O)NCc1ccc2c(c1)OCO2 | 33
* CC[C@H](C)[C@H](NC(=O)[C@H](CC1CCCCC1)NC(=O)c1ccno1)C(=O)NCc1cccc(-c2ccccc2)c1 | 5
* CC[C@H](C)[C@H](NC(=O)[C@H](CC1CCCCC1)NC(=O)c1ccno1)C(=O)NCc1ccccc1OC | 20
* CC[C@H](C)[C@H](NC(=O)[C@H](CC1CCCCC1)NC(=O)c1ccno1)C(=O)NCc1ccc(OC)cc1 | 51
* CC[C@H](C)[C@H](NC(=O)[C@H](CC1CCCCC1)NC(=O)c1ccno1)C(=O)NCc1ccccc1 | 23
* CC[C@H](C)[C@H](NC(=O)[C@H](CC1CCCCC1)NC(=O)c1ccno1)C(=O)NCc1ccc(-c2ccccc2)cc1 | 6
* CC[C@H](C)[C@H](NC(=O)[C@H](CC1CCCCC1)NC(=O)c1ccno1)C(=O)N(CC(C)C)CC(C)C | 1
* CCCOc1ccccc1CNC(=O)[C@@H](NC(=O)[C@H](CC1CCCCC1)NC(=O)c1ccno1)[C@@H](C)CC | 1
* CC[C@H](C)[C@H](NC(=O)[C@H](CC1CCCCC1)NC(=O)c1ccno1)C(=O)NCc1ccccc1C | 29
* CC[C@H](C)[C@H](NC(=O)[C@H](CC1CCCCC1)NC(=O)c1ccno1)C(=O)N1CCC2(C=Cc3ccccc32)CC1 | 16
* CCCCOc1ccccc1CNC(=O)[C@@H](NC(=O)[C@H](CC1CCCCC1)NC(=O)c1ccno1)[C@@H](C)CC | 1
* CC[C@H](C)[C@H](NC(=O)[C@H](CC1CCCCC1)NC(=O)c1ccno1)C(=O)NCc1ccccc1-c1ccccc1 | 1
* CC[C@H](C)[C@H](NC(=O)[C@H](CC1CCCCC1)NC(=O)c1ccno1)C(=O)NCc1ccccc1C(F)(F)F | 42

----------
tested-on: Proteinase-activated receptor 2 (Homo sapiens, UniProt P55085)
Sequence (P55085 whole entry): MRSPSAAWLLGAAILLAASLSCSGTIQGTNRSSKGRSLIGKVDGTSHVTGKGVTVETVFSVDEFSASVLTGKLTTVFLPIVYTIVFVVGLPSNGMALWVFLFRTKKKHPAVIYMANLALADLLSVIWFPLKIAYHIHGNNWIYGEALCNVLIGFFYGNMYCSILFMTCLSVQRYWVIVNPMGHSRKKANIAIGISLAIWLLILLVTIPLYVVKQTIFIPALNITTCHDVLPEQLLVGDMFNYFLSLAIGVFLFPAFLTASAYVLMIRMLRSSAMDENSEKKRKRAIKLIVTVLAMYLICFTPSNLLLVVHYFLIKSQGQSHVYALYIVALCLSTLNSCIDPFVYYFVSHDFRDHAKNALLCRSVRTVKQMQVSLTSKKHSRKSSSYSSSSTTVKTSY
measurement-notes: Antagonist activity at PAR2 in human HT-29 cells assessed as inhibition of trypsin-induced ca2+ release preincubated for 15 mins measured after 1 hr by FLIPR assay
Type: cell-based
assay-context: read-out: IC50
pIC50: −log10 of the molar value.
assay-endpoint: pIC50

* CC[C@H](C)[C@H](NC(=O)[C@H](CC1CCCCC1)NC(=O)c1ccno1)C(=O)N1CCC2(C=Cc3ccccc32)CC1 | 5.02

----------
The entries below come with measured inhibition values attached.
tested-on: Proteinase-activated receptor 2 (Homo sapiens) (UniProt P55085)
measurement-notes: Antagonist activity at PAR2 in human HT-29 cells assessed as inhibition of 2f-LIGRLO-NH2-induced ca2+ release at 1 uM preincubated for 15 mins measured after 1 hr by FLIPR assay
Type: cell-based
assay-endpoint: inhibition (%)

* CC[C@H](C)[C@H](NC(=O)[C@H](CC1CCCCC1)NC(=O)c1ccno1)C(=O)NCc1cccc(F)c1 | 74
* CC[C@H](C)[C@H](NC(=O)[C@H](CC1CCCCC1)NC(=O)c1ccno1)C(=O)NCc1ccccc1-c1ccccc1 | 0
* CC[C@H](C)[C@H](NC(=O)[C@H](CC1CCCCC1)NC(=O)c1ccno1)C(=O)NCc1ccc(-c2ccccc2)cc1 | 0
* CC[C@H](C)[C@H](NC(=O)[C@H](CC1CCCCC1)NC(=O)c1ccno1)C(=O)NCc1ccc2c(c1)OCO2 | 84
* CC[C@H](C)[C@H](NC(=O)[C@H](CC1CCCCC1)NC(=O)c1ccno1)C(=O)N(C)Cc1ccccc1OC | 27
* CC[C@H](C)[C@H](NC(=O)[C@H](CC1CCCCC1)NC(=O)c1ccno1)C(=O)NCc1cccc(OC)c1 | 98
* CC[C@H](C)[C@H](NC(=O)[C@H](CC1CCCCC1)NC(=O)c1ccno1)C(=O)NCc1ccc(F)cc1 | 82
* CC[C@H](C)[C@H](NC(=O)[C@H](CC1CCCCC1)NC(=O)c1ccno1)C(=O)N1CCC2(C=Cc3ccccc32)CC1 | 54
* CC[C@H](C)[C@H](NC(=O)[C@H](CC1CCCCC1)NC(=O)c1ccno1)C(=O)NCc1cccc2c1OCO2 | 90
* CC[C@H](C)[C@H](NC(=O)[C@H](CC1CCCCC1)NC(=O)c1ccno1)C(=O)NCc1cccc2ccccc12 | 12
* CC[C@H](C)[C@H](NC(=O)[C@H](CC1CCCCC1)NC(=O)c1ccno1)C(=O)NCc1ccccc1[N+](=O)[O-] | 94
* CCC(C)Oc1ccccc1CNC(=O)[C@@H](NC(=O)[C@H](CC1CCCCC1)NC(=O)c1ccno1)[C@@H](C)CC (some centres undefined) | 53
* CC[C@H](C)[C@H](NC(=O)[C@H](CC1CCCCC1)NC(=O)c1ccno1)C(=O)NNc1ccccc1 | 33
* CC[C@H](C)[C@H](NC(=O)[C@H](CC1CCCCC1)NC(=O)c1ccno1)C(=O)NCc1cccc(OC(F)(F)F)c1 | 18
